# target system: JAK1 (Homo sapiens (Human))
# Sequence (P23458 whole entry): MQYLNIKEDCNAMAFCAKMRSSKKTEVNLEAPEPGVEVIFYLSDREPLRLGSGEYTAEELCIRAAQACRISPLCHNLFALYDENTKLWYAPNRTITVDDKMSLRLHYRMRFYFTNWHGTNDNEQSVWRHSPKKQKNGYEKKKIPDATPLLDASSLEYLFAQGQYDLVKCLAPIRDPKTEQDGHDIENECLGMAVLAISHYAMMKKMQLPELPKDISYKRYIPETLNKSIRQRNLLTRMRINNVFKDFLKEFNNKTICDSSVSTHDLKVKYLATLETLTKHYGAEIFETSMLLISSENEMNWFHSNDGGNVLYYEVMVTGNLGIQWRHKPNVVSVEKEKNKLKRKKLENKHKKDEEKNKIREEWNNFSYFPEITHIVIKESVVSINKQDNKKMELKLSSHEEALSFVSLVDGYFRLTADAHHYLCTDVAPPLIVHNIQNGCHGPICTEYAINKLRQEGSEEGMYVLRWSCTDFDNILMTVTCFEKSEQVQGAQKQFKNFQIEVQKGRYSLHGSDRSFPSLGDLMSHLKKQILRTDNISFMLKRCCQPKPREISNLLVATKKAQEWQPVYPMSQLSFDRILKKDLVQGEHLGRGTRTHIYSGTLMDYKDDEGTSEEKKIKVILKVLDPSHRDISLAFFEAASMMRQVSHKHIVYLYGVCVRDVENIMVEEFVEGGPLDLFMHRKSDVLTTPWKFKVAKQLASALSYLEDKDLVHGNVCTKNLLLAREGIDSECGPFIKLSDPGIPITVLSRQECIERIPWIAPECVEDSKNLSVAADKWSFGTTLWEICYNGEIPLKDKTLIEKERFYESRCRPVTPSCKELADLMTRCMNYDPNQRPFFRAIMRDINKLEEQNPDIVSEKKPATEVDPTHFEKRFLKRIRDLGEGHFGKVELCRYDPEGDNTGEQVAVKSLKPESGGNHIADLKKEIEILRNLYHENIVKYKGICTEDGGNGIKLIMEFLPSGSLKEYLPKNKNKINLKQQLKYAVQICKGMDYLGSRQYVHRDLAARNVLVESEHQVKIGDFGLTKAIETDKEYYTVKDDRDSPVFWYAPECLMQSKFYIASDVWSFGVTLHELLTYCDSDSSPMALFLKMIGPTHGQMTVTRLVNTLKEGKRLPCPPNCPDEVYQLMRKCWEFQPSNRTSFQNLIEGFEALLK
# assay explanation: JAK1 LANCE Ultra kinase assay
# Format: biochemical
# run parameters: 38 uM ATP
Class (by IC50) -- bottom range: < 0.9 nM; center range: ≥ 0.9 nM and < 6 nM; top range: ≥ 6 nM

Category of C[C@@H]1CCN(C(=O)CC#N)C[C@@H]1N(C)c1c(C#N)cnc2[nH]ccc12 [Compound H11] :
center range

Place this compound in its band: CC[C@@H]1CC(NS(=O)(=O)c2cccc(C(F)(F)F)c2)C[C@@H]1Nc1c(C#N)cnc2[nH]ccc12 (some centres unmarked) [Compound H60]
center range

Category of CN(c1c(C#N)cnc2[nH]ccc12)[C@H]1C[C@@H]2CN(C(=O)Nc3nc(OCC(C)(C)N)ns3)C[C@@H]2C1 [Compound H44] , please.
bottom range

Class label required: CC[C@@H]1CN(CCC#N)C[C@@H]1Nc1c(C#N)cnc2[nH]ccc12 (relative stereo) [Compound H88]
bottom range

The entry to classify is CCCS(=O)(=O)N[C@H]1C[C@@H](N(C)c2c(C#N)cnc3[nH]ccc23)C1 [Compound H14] ; which class holds it?
center range

State the class of the compound shown: COCCOC1CCCN(S(=O)(=O)C[C@H]2CC[C@@H](N(C)c3c(C#N)cnc4[nH]ccc34)C2)C1 (some centres unmarked) [Compound H70]
top range

Class? Entry: CN(c1c(C#N)cnc2[nH]ccc12)[C@H]1C[C@@H]2CN(C(=O)Nc3nc(C4CC4)ns3)C[C@@H]2C1 [Compound H26]
center range

Which category fits this record: C[C@@H]1CN(C(=O)CC#N)C[C@@H]1N(C)c1c(C#N)cnc2[nH]ccc12 (relative stereo) [Compound H05]
top range

Which IC50 category applies to COc1nsc(NC(=O)N[C@H]2C[C@@H](N(C)c3c(C#N)cnc4[nH]ccc34)C2)n1 [Compound H29] here?
bottom range

Would you mind sorting CC(C)c1nsc(NC(=O)N2C[C@H]3C[C@H](N(C)c4c(C#N)cnc5[nH]ccc45)C[C@H]3C2)n1 [Compound H30] into the appropriate category?
bottom range

Which IC50 band matches N#Cc1cnc2[nH]ccc2c1N[C@H]1CN(C(=O)NCC(F)(F)F)CC12CC2 [Compound H72] ?
top range

For COCCOc1nsc(NC(=O)N2C[C@H]3C[C@H](Nc4c(C#N)cnc5[nH]ccc45)C[C@H]3C2)n1 [Compound H52] , which IC50 bin applies?
bottom range

The entry to classify is CC[C@@H]1CN(C(=O)NC(C)C(C)C)C[C@@H]1Nc1c(C#N)cnc2[nH]ccc12 (relative stereo) [Compound H85] ; which class holds it?
center range

###

# target system: JAK3 (Homo sapiens (Human), UniProt P52333)
# Sequence (P52333 whole entry): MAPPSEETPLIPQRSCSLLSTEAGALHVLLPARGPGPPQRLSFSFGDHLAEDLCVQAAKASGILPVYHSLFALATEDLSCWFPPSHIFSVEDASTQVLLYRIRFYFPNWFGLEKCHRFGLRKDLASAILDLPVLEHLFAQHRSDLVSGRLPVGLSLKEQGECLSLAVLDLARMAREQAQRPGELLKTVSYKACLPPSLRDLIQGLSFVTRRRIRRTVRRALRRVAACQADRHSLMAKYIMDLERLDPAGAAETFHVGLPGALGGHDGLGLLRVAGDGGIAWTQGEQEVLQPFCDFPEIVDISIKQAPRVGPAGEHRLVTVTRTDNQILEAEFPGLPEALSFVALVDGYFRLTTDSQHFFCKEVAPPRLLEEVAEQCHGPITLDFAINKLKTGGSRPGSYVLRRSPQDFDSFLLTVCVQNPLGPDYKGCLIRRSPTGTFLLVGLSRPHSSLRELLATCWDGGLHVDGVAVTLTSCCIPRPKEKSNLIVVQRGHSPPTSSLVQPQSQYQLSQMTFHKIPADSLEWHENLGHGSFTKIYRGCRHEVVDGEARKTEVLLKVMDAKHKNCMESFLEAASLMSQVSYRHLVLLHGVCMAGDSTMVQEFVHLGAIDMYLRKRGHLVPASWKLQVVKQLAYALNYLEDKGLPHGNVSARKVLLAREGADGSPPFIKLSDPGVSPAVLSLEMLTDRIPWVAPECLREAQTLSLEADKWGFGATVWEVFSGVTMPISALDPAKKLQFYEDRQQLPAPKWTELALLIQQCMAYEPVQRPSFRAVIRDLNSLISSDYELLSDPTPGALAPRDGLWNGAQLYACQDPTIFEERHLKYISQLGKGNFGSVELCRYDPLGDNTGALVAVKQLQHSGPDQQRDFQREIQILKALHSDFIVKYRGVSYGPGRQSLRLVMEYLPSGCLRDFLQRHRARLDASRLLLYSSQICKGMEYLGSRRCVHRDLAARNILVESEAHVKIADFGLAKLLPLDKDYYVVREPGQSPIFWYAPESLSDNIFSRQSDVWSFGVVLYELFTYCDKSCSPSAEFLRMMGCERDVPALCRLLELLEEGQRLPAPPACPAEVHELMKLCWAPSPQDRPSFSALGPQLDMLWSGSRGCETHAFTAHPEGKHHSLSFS
# assay explanation: JAK3 LANCE Ultra kinase assay
# Type: biochemical
# run parameters: 4 uM ATP
readout label: log10 IC50 (log10 of the value in nM)
Units before log transform: nM; reported quantity: IC50; transform: log10.

Under JAK3 (Homo sapiens (Human), UniProt P52333), report log10 IC50 for CC[C@@H]1CN(C(=O)NC(C)C(C)C)C[C@@H]1Nc1c(C#N)cnc2[nH]ccc12 (relative stereo) [Compound H85]
1.68

Check JAK3 (Homo sapiens (Human), UniProt P52333) data and give log10 IC50 for N#Cc1cnc2[nH]ccc2c1N[C@H]1C[C@@H](NS(=O)(=O)c2ccc(C(F)(F)F)cc2)C1 [Compound H17] .
1.43

Report value only: log10 IC50, JAK3 (Homo sapiens (Human), UniProt P52333), COc1nsc(NC(=O)N2C[C@H]3C[C@H](Nc4c(C(F)(F)F)cnc5[nH]ccc45)C[C@H]3C2)n1 [Compound H50]
2.14

// fetch log10 IC50 for C[C@@H]1CCN(C(=O)CC#N)C[C@@H]1N(C)c1c(C#N)cnc2[nH]ccc12 [Compound H11] ; system: JAK3 (Homo sapiens (Human), UniProt P52333)
1.89

# return log10 IC50 for COc1noc(NC(=O)N2C[C@H]3C[C@H](N(C)c4c(C#N)cnc5[nH]ccc45)C[C@H]3C2)n1 [Compound H43] , test system: JAK3 (Homo sapiens (Human), UniProt P52333)
2.10

Quote log10 IC50 with test system JAK3 (Homo sapiens (Human), UniProt P52333) for CC[C@@H]1CC(NC(=O)Nc2nc(OC)ns2)C[C@@H]1Nc1c(C#N)cnc2[nH]ccc12 (stereo partly drawn) [Compound H61]
2.77

Give log10 IC50 only, for CCC1CN(C(=O)CC#N)CC1Nc1c(C#N)cnc2[nH]ccc12 (stereo not drawn) [Compound H78] , using JAK3 (Homo sapiens (Human), UniProt P52333) data.
1.62

State log10 IC50 on JAK3 (Homo sapiens (Human), UniProt P52333). Entry: N#Cc1cnc2[nH]ccc2c1N1CC2CN(C(=O)NCC(F)(F)F)CC21 (stereo not drawn) [Compound H39]
2.18

State log10 IC50 on JAK3 (Homo sapiens (Human), UniProt P52333). Entry: C[C@H](O)C(=O)N1C[C@H]2C[C@@H](N(C)c3c(C#N)cnc4[nH]ccc34)C[C@H]2C1 [Compound H06]
1.98

GET log10 IC50 | system: JAK3 (Homo sapiens (Human), UniProt P52333) | item: COCc1nsc(NC(=O)N2C[C@H]3C[C@H](N(C)c4c(C#N)cnc5[nH]ccc45)C[C@H]3C2)n1 [Compound H56]
1.91

Recall the reported log10 IC50 of CC[C@@H]1CN(C(=O)NCC(C)(C)C)C[C@@H]1Nc1c(C#N)cnc2[nH]ccc12 (relative stereo) [Compound H86] on JAK3 (Homo sapiens (Human), UniProt P52333) and write it down.
2.23

Enter log10 IC50 (test system JAK3 (Homo sapiens (Human), UniProt P52333)) for CN(c1c(C#N)cnc2[nH]ccc12)[C@H]1C[C@@H](NS(=O)(=O)c2cccc3nonc23)C1 [Compound H18]
1.60

Return reported log10 IC50 for target or system JAK3 (Homo sapiens (Human), UniProt P52333), item CCCS(=O)(=O)N[C@H]1C[C@@H](Nc2c(C#N)cnc3[nH]ccc23)C1 [Compound H46] .
1.83

# assay system JAK3 (Homo sapiens (Human), UniProt P52333): give log10 IC50 of CN(c1c(C#N)cnc2[nH]ccc12)[C@H]1C[C@@H]2CN(C(=O)Nc3ccc(Cl)c(C(F)(F)F)c3)C[C@@H]2C1 [Compound H25]
1.76

Under JAK3 (Homo sapiens (Human), UniProt P52333): report log10 IC50 of COCc1nsc(NC(=O)N2C[C@H]3C[C@H](Nc4c(C#N)cnc5[nH]ccc45)C[C@H]3C2)n1 [Compound H57] .
1.68
